TARGET: Homeobox protein Meis1 (Homo sapiens)
Sequence (whole entry): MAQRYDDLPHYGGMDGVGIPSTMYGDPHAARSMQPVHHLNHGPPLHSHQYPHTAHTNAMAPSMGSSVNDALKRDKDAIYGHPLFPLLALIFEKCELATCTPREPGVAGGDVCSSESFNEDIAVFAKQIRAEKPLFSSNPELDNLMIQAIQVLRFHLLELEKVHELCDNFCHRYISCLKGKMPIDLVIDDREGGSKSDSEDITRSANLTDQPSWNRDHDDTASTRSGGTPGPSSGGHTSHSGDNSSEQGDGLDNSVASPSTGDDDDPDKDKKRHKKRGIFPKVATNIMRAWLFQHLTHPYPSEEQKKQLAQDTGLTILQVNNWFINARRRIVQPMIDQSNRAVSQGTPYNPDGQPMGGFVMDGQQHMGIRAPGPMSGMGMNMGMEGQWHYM
ASSAY_INFO: Inhibition of MEIS1 (unknown origin) expressed in HEK293T cells co-expressing MEIS-Luc-pGL2 assessed as downregulation of p21 gene expression by measuring mRNA level at 10 uM incubated for 2 days by RT-qPCR analysis
Type: cell-based
Design: scale not given: the % may be the effect or the level left
SETTINGS: time 2.0 day
MEASUREMENT_KIND: Activity (%)

Cc1cccc(NC(=O)c2ccc(OCC(=O)NCc3ccccc3)cc2)c1C = 17.8
COc1ccc(CNC(=O)COc2ccc(C(=O)Nc3cccc(C(F)(F)F)c3)cc2)cc1 = 49.5
Cc1cccc(NC(=O)c2ccc(OCC(=O)NCc3ccc(Cl)cc3)cc2)c1C = 47.4
COc1ccc(CNC(=O)COc2ccc(C(=O)Nc3cc(C(F)(F)F)ccc3F)cc2)cc1 = 5.2
COc1ccc(CNC(=O)COc2ccc(C(=O)Nc3cccc(Cl)c3)cc2)cc1 = 12.7

These data points were gathered from ChEMBL document CHEMBL4828764.
